# Test system: OVCAR-5 ovarian
# assay_text: NCI-60 one-dose screen, 48 h
# condition_parameters: 10 µM unless noted
# Procedure: Growth inhibition of the OVCAR-5 human tumor cell line is measured as a screen for anti-cancer activity. Cells are grown in 96 well plates and exposed to the test compound for 48 hours. Compounds are tested at a single concentration, which is 10^-5 M for most compounds. The reported endpoint is percent growth (GI% or GIPRCNT), where numbers from 0 - 100% represent growth inhibition, and numbers from -100% - 0 represent cell death. For example, a value of 40 represents 60% growth inhibition. […]
Compounds without any hit were thinned out: in the full panel of roughly 83,000, 20% have a hit. Activity calls are given as the source filed them. Rule for the calls: active = growth percent below 10; inactive = the rest.
Give one outcome, nothing more. List: Yes for active, No for inactive

Some solved entries appear below for comparison.
COC(=O)C1(NC(=O)CNC(=O)OCc2ccccc2)CCCC1
No
O=Cc1ccccc1C(=O)O
No
Cc1ccc2nc(SCC(=O)Nc3ccc(-c4nc5ccccc5s4)c(Cl)c3)[nH]c2c1
No
CN(C)CCC(=O)Nc1ccc(-n2cc(-c3cccc(NC(=S)Nc4cccc(-c5cn(-c6ccc(NC(=O)CCN(C)C)cc6)nn5)c4)c3)nn2)cc1
No
O=C(c1ccc(N2CCOCC2)cc1[N+](=O)[O-])N1CCOCC1
No

Per the records of this test, what outcome belongs to `O=C1Nc2ccc(C(=O)O)c(O)c2C1=O` ?
No

Per the records of this test, what outcome belongs to CC1C(C)N(C(=O)CCl)c2ccccc2N1C(=O)CCl (centres undefined) ?
Yes

Per the records of this test, what outcome belongs to `COc1ccc2c(c1)sc1nc(-c3ccc(N(C)C)cc3)cn12` ?
No

Per the records of this test, what outcome belongs to `COc1cccc(/C=N\NC(=O)c2ccncc2)c1O` ?
No

Per the records of this test, what outcome belongs to `CCOC(CNCc1cc(C)c2[nH]c3ccccc3c2c1C)OCC` ?
No

Per the records of this test, what outcome belongs to `O=C(CNC(=O)c1cccc2ccccc12)Nc1ccccc1Cc1ccccc1` ?
No

Per the records of this test, what outcome belongs to `O=C(CNc1ccc2c(c1)C(=O)c1ccccc1C2=O)Nc1ccc2c(c1)C(=O)c1ccccc1C2=O` ?
Yes

Per the records of this test, what outcome belongs to O=C(O)C1C(c2ccccc2)c2ccccc2C(O)C1CO (centres undefined) ?
No

Per the records of this test, what outcome belongs to `COc1ccc(NC(=O)[C@@H]2C[C@H]2c2ccccc2)c(C(N)=O)c1` ?
No

Per the records of this test, what outcome belongs to `CC[C@@H](C)/C=C(C)/C=C/C(O)=C1\C(=O)N[C@@H](Cc2ccc(OC(=O)[C@@](OC)(c3ccccc3)C(F)(F)F)cc2)C1=O` ?
No

Per the records of this test, what outcome belongs to COC(=O)C1=CCC(n2cnc3c(N)ncnc32)O1 (centres undefined) ?
No

Per the records of this test, what outcome belongs to O=c1ccn(C2CC=C(CO)O2)c(=O)[nH]1 (centres undefined) ?
No

Per the records of this test, what outcome belongs to O=C(Oc1ccccc1)C(Br)C(Br)c1ccccc1 (centres undefined) ?
No

Per the records of this test, what outcome belongs to `NC(=O)c1cc(Br)cc(Br)c1NS(=O)(=O)c1ccccc1` ?
No

Per the records of this test, what outcome belongs to `COc1cc2c(cc1OC)C(=O)/C(=C/c1cccc(OCC(=O)c3ccccc3)c1)C2` ?
No

Per the records of this test, what outcome belongs to `CN1CCN(CCCOc2ccc3ncnc(Nc4ccc(OCc5cccc(F)c5)c(Cl)c4)c3c2)CC1` ?
Yes

Per the records of this test, what outcome belongs to `COc1ccc(C(=O)/C=C/c2ccc(C)cc2)cc1OC` ?
No

Per the records of this test, what outcome belongs to `O=C(Nc1ccc2c(c1)C(=O)c1ccccc1-2)c1ccccc1` ?
No

Per the records of this test, what outcome belongs to Clc1ccc2c(c1)C(Br)c1cc(Cl)cc(Cl)c1-2 (centres undefined) ?
No

FYI, the data here is from PubChem BioAssay (NCI).
